Experimental system: HIV-1 RT (Human immunodeficiency virus type 1 group M subtype B)
Protocol notes: HIV-1 Reverse Transcriptase Assay: Inhibitor IC50 Determination
Format: biochemical
Conditions: purified recombinant enzyme, poly(rA)/oligo(dT)16 template-primer
// returns not fulfilled unless IC50 is strictly below 500 nM, in which case fulfilled

Before answering, review these 4 worked examples.
CC(C)n1c(Sc2cc(Cl)cc(Cl)c2)c(Cc2ccncc2)n(C)c1=O = fulfilled
CC(C)n1c(Sc2ccccc2)c(CNCc2ccccc2)n(C)c1=O = not fulfilled
CC(C)n1c(Sc2cc(Cl)cc(Cl)c2)c(COCc2cccnc2)n(C)c1=O = fulfilled
CC(C)n1c(Sc2ccccc2)c(CNCc2ccncc2)n(C)c1=O = not fulfilled

Now take the following compound into account.
Please check: IC50 for CC(C)n1c(Oc2cc(Cl)cc(Cl)c2)c(CNCc2ccncc2)n(C)c1=O , strictly under 500 nM or not?
not fulfilled

* * *

Test system: HXB2-strain of HIV in MT4 cells
Protocol notes: Antiviral assay: protection of HIV-infected MT4 cells from cell death (MTT)
Type: cell-based
Conditions: Human immunodeficiency virus 1; MT4 cells infected with HXB2-strain of HIV, MTT viability
Endpoint name: pIC50
Answers are plain numbers, as −log10 of the molar value.

The cases that follow already have their pIC50 on record.
CC(C)n1c(Sc2ccccc2)c(CNCc2ccncc2)n(C)c1=O = 7.49
CC(C)n1c(Sc2cc(Cl)cc(Cl)c2)c(CNCc2ccncc2)n(C)c1=O = 8.15
CC(C)n1c(Sc2cc(Cl)cc(Cl)c2)c(Cc2ccncc2)n(C)c1=O = 8.15

Hi, could you look up pIC50 for each item in my list?
1. CC(C)n1c(Oc2cc(Cl)cc(Cl)c2)c(CNCc2ccncc2)n(C)c1=O
2. CC(C)n1c(Sc2cc(Cl)cc(Cl)c2)c(COc2ccncc2)n(C)c1=O
3. CC(C)n1c(Sc2cc(Cl)cc(Cl)c2)c(COCc2ccncc2)n(C)c1=O
4. CC(C)n1c(Sc2ccccc2)c(CNCc2ccccc2)n(C)c1=O
5. CC(C)n1c(Sc2cc(Cl)cc(Cl)c2)c(COCc2cccnc2)n(C)c1=O

6.97
6.87
8.40
7.36
8.30

* * *

Experimental system: HIV-1 RT (Human immunodeficiency virus type 1 group M subtype B, UniProt P04585)
Protocol notes: HIV-1 Reverse Transcriptase Assay: Inhibitor IC50 Determination
Assay type: biochemical
Conditions: purified recombinant enzyme, poly(rA)/oligo(dT)16 template-primer
Endpoint name: log10 IC50 (log10 of the value in nM)
A difference of one corresponds to tenfold IC50; all values are log10 with IC50 in nM.

The cases that follow already have their log10 IC50 on record.
CC(C)n1c(Sc2cc(Cl)cc(Cl)c2)c(CNCc2ccncc2)n(C)c1=O = 1.95
CC(C)n1c(Sc2cc(Cl)cc(Cl)c2)c(COCc2ccncc2)n(C)c1=O = 2.23
CCn1c(Cc2ccncc2)c(Sc2cc(Cl)cc(Cl)c2)n(C(C)C)c1=O = 2.81
CC(C)n1c(Sc2cc(Cl)cc(Cl)c2)c(/C=C/C#N)n(C)c1=O = 3.28
COc1cccc(Sc2c(CNCc3ccncc3)n(C)c(=O)n2C(C)C)c1 = 3.52

Hi, could you look up log10 IC50 for each item in my list?
1. CC(C)n1c(Sc2cc(Cl)cc(Cl)c2)c(CO)n(C)c1=O
2. Cn1c(COCc2ccccc2)c(Sc2cc(Cl)cc(Cl)c2)n(-c2ccccc2)c1=O
3. CC(C)n1c(Sc2cc(Cl)cc(Cl)c2)c(CCc2ccccc2)n(C)c1=O
4. CCC(C)Sc1c(CNCc2ccncc2)n(C)c(=O)n1C(C)C (stereo not shown)
5. CC(C)n1c(Sc2cc(Cl)cc(Cl)c2)c(COc2ccncc2)n(C)c1=O

[4.00, 4.00, 3.06, 3.28, 2.78]

Where do the numbers come from? From patent US6518293B2.
